# target.of.assay: Human immunodeficiency virus type 1 protease (Human immunodeficiency virus 1, UniProt Q72874)
measured.parameter: EC50 (nM)

CC(C)[C@H](NC(=O)N(C)Cc1ccccn1)C(=O)N[C@@H](Cc1ccccc1)[C@H](O)[C@H](O)[C@H](Cc1ccccc1)NC(=O)[C@@H](NC(=O)N(C)Cc1ccccn1)C(C)C [A-77003] ... 70

a: CC(C)[C@H](NC(=O)N(C)Cc1ccccn1)C(=O)N[C@@H](Cc1ccccc1)[C@@H](O)[C@H](O)[C@H](Cc1ccccc1)NC(=O)[C@@H](NC(=O)N(C)Cc1ccccn1)C(C)C
b: CC(C)[C@H](NC(=O)OCc1ccccn1)C(=O)N[C@@H](Cc1ccccc1)[C@H](O)[C@H](O)[C@H](Cc1ccccc1)NC(=O)[C@@H](NC(=O)OCc1ccccn1)C(C)C
Asked: Pick one: a or b . Which one has the lower reported EC50? Field: selected label. Fill in the label of the entry you choose.
Given back: b
